Reference for the values: patent EP1420018A1

# target or system: benzodiazepine site of the GABA-A receptor
# experiment description: Benzodiazepine Receptor Binding Assay (inhibition of 3H-flunitrazepam binding)
# setup conditions: read-out: GABAA Receptor Binding IC50
pIC50: −log10 of the molar value.
recorded metric: pIC50

Study these solved cases before continuing.
# compound, pIC50
rows = [
    ("COCCN1C2=C(C(=O)Nc3ccccc3F)C(=O)CCN2c2c(O)cccc21", 7.98),
    ("CCOCCN1C2=C(C(=O)Nc3sccc3Cl)C(=O)CCN2c2ccc(F)cc21", 9.05),
    ("COCCN1C2=C(C(=O)Nc3cccs3)C(=O)CCN2c2ccc(F)cc21", 8.75),
    ("COCCN1C2=C(C(=O)Nc3ccc(C)s3)C(=O)CCN2c2ccc(F)cc21", 8.87),
    ("O=C1CCN2C(=C1C(=O)Nc1ccccc1F)N(CCCO)c1cc(F)ccc12", 8.97),
    ("O=C1CCN2C(=C1C(=O)Nc1ccccc1F)N(CCN1CCNCC1)c1cc(F)ccc12", 7.90),
    ("N#CCN1C2=C(C(=O)NC3CCCCC3)C(=O)CCN2c2ccc(F)cc21", 7.52),
    ("O=C1CCN2C(=C1C(=O)Nc1ccccc1F)N(CCO)c1cc(F)ccc12", 8.93),
    ("COCCN1C2=C(C(=O)Nc3ccccc3F)C(=O)CCN2c2ccc(C(F)(F)F)cc21", 8.70),
]

1: CC(C)N(CCN1C2=C(C(=O)Nc3c(F)cccc3F)C(=O)CCN2c2ccc(F)cc21)C(C)C
2: O=C1CCN2C(=C1C(=O)Nc1ccccc1F)N(CC1CCOC1)c1cc(F)ccc12 (centres unmarked)
[in] Min pIC50? 1 | 2 When you have decided, please share the label of that item.
[out] 1
(1: 7.35, 2: 8.64)

* * *

# Test system: Anxiety in the Adult Male Rat
# experiment description: Suppression of Anxiety in the Adult Male Rat (rat conflict test)
# Assay type: in vivo, rats
# setup conditions: Rattus norvegicus, po, rat, po; read-out: Rat Conflict (MED, mg/kg) po
recorded metric: minimal effective dose

Study these solved cases before continuing.
# molecule, observed value
data = [
    ("N#CCN1C2=C(C(=O)NC3CC3)C(=O)CCN2c2ccc(F)cc21", "> 10 mg/kg"),
    ("O=C1CCN2C(=C1C(=O)Nc1ccccc1F)N(CCNC(=O)c1cccc(C(F)(F)F)c1)c1cc(F)ccc12", "> 10 mg/kg"),
]

minimal effective dose measured on `CCN(CC)CCN1C2=C(C(=O)Nc3ccccc3F)C(=O)CCN2c2ccc(F)cc21` = > 10 mg/kg

minimal effective dose measured on `CCOCN1C2=C(C(=O)Nc3cc4ccccc4s3)C(=O)CCN2c2ccccc21` = > 10 mg/kg

* * *

# Tested on: Anxiety in the Adult Male Rat
# experiment description: Suppression of Anxiety in the Adult Male Rat (rat conflict test)
# Assay type: in vivo, rats
# setup conditions: Rattus norvegicus, po, rat, po; read-out: Rat Conflict (MED, mg/kg) po
# Protocol: Assay to Measure the Suppression of Anxiety in the Adult Male Rat Male rats were deprived of water for 48 hours and were deprived of food for 24 hours prior to testing. After the first 24 hours of water deprivation, they were placed in the conflict chamber for a training period; wherein, they were allowed 200 unpunished licks from a bottle containing tap water. The experiment was run the next day. […]
compounds and their reported minimal effective dose

# compound, minimal effective dose
rows = [
    ("CC(C)(C)OC(=O)NCCN1C2=C(C(=O)Nc3ccccc3F)C(=O)CCN2c2ccc(F)cc21 [Compound 58]", "> 10 mg/kg"),
    ("CCOCCN1C2=C(C(=O)Nc3sccc3Cl)C(=O)CCN2c2ccc(F)cc21 [Compound 125]", "> 10 mg/kg"),
    ("COCCN1C2=C(C(=O)Nc3ccccc3F)C(=O)CCN2c2ccc(F)c(F)c21 [Compound 149]", "> 10 mg/kg"),
    ("CCOCCN1C2=C(C(=O)Nc3ccc(C)s3)C(=O)CCN2c2ccc(F)cc21 [Compound 131]", "~1 mg/kg"),
]

Note: attention shifts to another entry.
minimal effective dose measured on O=C1CCN2C(=C1C(=O)Nc1ccccc1F)N(CCNC(=O)c1ccccc1C(F)(F)F)c1cc(F)ccc12 [Compound 76] = > 10 mg/kg
